The origin of these recorded values is ChEMBL document CHEMBL1152715.

- SYSTEM TESTED: UniProtKB P13053
- Sequence (P13053 whole entry): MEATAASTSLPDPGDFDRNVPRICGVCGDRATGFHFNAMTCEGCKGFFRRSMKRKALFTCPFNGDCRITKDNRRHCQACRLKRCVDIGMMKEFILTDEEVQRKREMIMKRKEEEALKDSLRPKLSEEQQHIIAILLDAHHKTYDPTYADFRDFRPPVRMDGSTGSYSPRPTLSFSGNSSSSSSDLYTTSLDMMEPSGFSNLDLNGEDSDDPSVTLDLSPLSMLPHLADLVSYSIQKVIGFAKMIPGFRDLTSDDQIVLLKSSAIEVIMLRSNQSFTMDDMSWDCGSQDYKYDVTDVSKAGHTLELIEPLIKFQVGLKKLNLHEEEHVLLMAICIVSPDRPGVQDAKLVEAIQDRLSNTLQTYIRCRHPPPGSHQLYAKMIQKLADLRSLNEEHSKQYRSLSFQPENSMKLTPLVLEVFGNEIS
- METHOD: Activity at VDR in rat ROS 17/2.8 cells assessed as transcriptional activation of 24-hydroxylase gene promoter after 16 hrs by luciferase reporter gene assay
pEC50: −log10 of the molar value.
RECORDED METRIC: pEC50

- C=C1[C@H](O)CC(=C/C=C/C[C@@H](C)C[C@@H](C)CCCC(C)(C)O)C[C@H]1O: 7.05

[1] C=C1[C@H](O)CC(=C/C=C/CCC[C@@H](C)CCCC(C)(C)O)C[C@H]1O
[2] C=C1[C@H](O)CC(=C/C=C/C[C@H](C)C[C@@H](C)CCCC(C)(C)O)C[C@H]1O
pEC50 comparison. Which is larger, 1 or 2 ? Kindly state the label of the option you pick.
2
